Recorded values, source paper PMC10928148.

# ASSAYED_SYSTEM: T1, Wuhan-Hu-1 S protein on plant-produced virus-like particles (Severe acute respiratory syndrome …, UniProt P0DTC2)
# T1 construct: also called SARS-CoV-2 VLPs (Wuhan variant)
# ASSAY_EXPLANATION: ELISA
# MEASUREMENT_CONTEXT: both partners purified
pEC50: −log10 of the molar value.
VALUE_KIND: pEC50

# BINDER, QUANTITATIVE_RESULT
data = [
    ("COVA2-15 monomeric IgA2 (antibody, V domains shown) VH: QVQLLESGGGLVQPGGSLRLSCAASGFTFSSYAMSWVRQAPGKGLEWASAISGSGGSTYYADSVEGRFTISRDNSKNTLYLQMNSLRAEDTAVYYCAKDTGYCGDDCYIKLIRGGPDYWGQGTLVTVSS VL: DIVMTQSPLSLPVTLGQPASISCRSSQSLVYSDGNTFLNWFQQRPGQSPRRLIYQVSNRDSGVPDRFSGSGSGTDFTLKISRVEAEDVGVYYCMQGTHWPRTFGQGTKLEIK", 9.83),
]
